Assignment: determine reported TGI for the given compounds.
System: HCT-116 colon
Assay Summary: NCI tumour cell line growth inhibition, 48 h

>>> print(df.to_string())
                                   compound    result
0  O=[N+]([O-])c1ccc(C=NCC2CCCN3CCCCC23)cc1 (stereo not drawn)  > 100 µM
1  N#Cc1c(-c2ccccc2)c(N=Nc2ccc(Cl)cc2)c(=O)n2c1[nH]c1ccccc12  > 100 µM

Now take the following compound into account.
-- ask Find the measured TGI of C[N+]1(CCCl)CC[N+](C)(CCCl)CC1 (stereo not drawn) and report it.
-- reply > 100 µM
